# System: MS2 coat protein
# assay.procedure: apparent KD of MS2 coat protein; designed switch direction (-1 OFF switch, 1 ON switch): 1; higher = weaker reporter binding
# stated.conditions: input ligand: none
Give measured apparent KD of MS2 coat protein for each item. Keep answers brief.
Give just the numeric value; nM need not be written.

# apparent KD of MS2 coat protein of UGAAUAGUCACAGGAUAUCAUGCGAAAAUUGCGUGAGAAGGGUGGGUGUUGUGCUCAAAGUGCUACAUGAGGAUCACCCAUGUU [SameState NG1 #41] (Eterna round: R96, puzzle: Same State NG 1) = 1210

# apparent KD of MS2 coat protein of UGUACCUGCACAGGAUAUCAUGCGAAAAUUGCGUGAGAAGGGUGAAUACUGUCUUUCUAAGAGUACAUGAGGAUCACCCAUGUA [SameState NG1 #61] (Eterna round: R96, puzzle: Same State NG 1) = 119

# apparent KD of MS2 coat protein of UUGCUCGUGUGAGGAUAUGCAGCCGUUUCGGCUGCAGAAGGUACUAUAAUACAUGAGGAUCACCCAUGUCUCUAUUAUUUAGUG [salish99_SSNG1_r04_926] (Eterna round: R96, puzzle: Same State NG 1) = 28.7

# apparent KD of MS2 coat protein of UGAAUAGUGAUAGGAUAUACAUGAGGAAUCCUCGUAGAAGGAUCAUAACAUGAGGAUCACCCAUGUAGCCGUCGAAAGACGGCA [Mat - Same State NG 1 - JL mod - D58] (Eterna round: R96, puzzle: Same State NG 1) = 122

---

# System: K4 kissing-loop RNA reporter;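 further: bound reporter read as fluorescence of individual clusters on recovered sequencing chips by microscopy, with normalized cluster intensities fitted with a binding model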
# assay.procedure: apparent KD of K4 kissing-loop reporter; higher = weaker reporter binding
# stated.conditions: Eterna round: R107; input ligand: arginine 13.2 mM
test.readout: apparent KD of K4 kissing-loop reporter
Answers without a unit are incomplete; give the number and then its unit.

# apparent KD of K4 kissing-loop reporter of AAUUUAUUAACUGAUACCAGACUUUAUUAUUUGUAAAUUACUAGUGAUGUUAGUGUUUCUGUCCCUUGGCAGCAGUAUUUAUUAA [JR_SSTheophyB_Sub024] = 0.142 µM

# apparent KD of K4 kissing-loop reporter of UUUGUAGUGGGAGGAUAUCCUAAUAUGGGUGAUGUUAGCGAUGUUGAAGGUGUAGUGAUGUUAUGCGGAGAAGGCCCACUGUAGA [BDazzled - #20 - Exc. FMN B] = 0.221 µM

# apparent KD of K4 kissing-loop reporter of GCCGUACGCAUGGAUACCAGAGAUGUUAAUCUCGAUGCCAGUGAUGUUGGCUUUAGCAUACUCCCUUGGCAGCCAUGCGUACGGC = 0.241 µM

---

# Tested on: MS2 coat protein
# assay.procedure: apparent KD of MS2 coat protein; higher = weaker reporter binding
# stated.conditions: Eterna round: R107; input ligand: theophylline 2 mM
test.readout: apparent KD of MS2 coat protein

# apparent KD of MS2 coat protein of UUUUAGCAUCGAAGGAGCGCUGGUAGGUGACACAUGAGGAUCACCCAUGUGCUCCUUGCCGAGCAGGUAGGUCGCGAUGCUAUUU [SSAB NP+V+V2 #8] = 73.3 nM

# apparent KD of MS2 coat protein of ACAUGAGGAUCACCCAUGUAAUUGCCGGAAGGAGCGUCAUUAAGGACAGGUAGGUCGCUGGUAGGGUCGUCGGUUACGGCGGCCA [SSArg A #10] = 13 nM

# apparent KD of MS2 coat protein of CCCUCCAGAACGGCCGCCACUAAAGGGUUGUGUGCGACUCCGGAACAUGAGGAUCACCCAUGUCUUAGGACCGGGUUCCCUUCUA [theeternabot_sameState_MS2_Trp_B_30] = 82.2 nM

# apparent KD of MS2 coat protein of GAGUACACUACGGCCGCCACUCAAGGAGCUACAUAGCUCCUAGACAUGAGGAUCACCCAUGUACCGAGGACCGGGUAGAUCCUUA [Same State Typrtophan B GF2] = 294 nM

# apparent KD of MS2 coat protein of CCCAAUUUCCGAGAUAUGGGUCCAACUAAACGAGGACCGGUACGGCCGCCACUCGACUACAAACAUGAGGAUCACCCAUGUAAAG [theeternabot_exclusion_MS2_Trp_A_40] = 19.8 nM

# apparent KD of MS2 coat protein of AAAAGAGGUGGAAGGAGCGGGAGACAUGAGGAUCACCCAUGUGAAGUGACGAAAGGAUCAGCCCAGGUAGGUCGCCAUGUCGAAA [yuiiumullin] = 25.9 nM

# apparent KD of MS2 coat protein of UCGCCCGGGUCGGCCGCCACUGCGGUGAUGUGACAUGAGGAUCACCCAUGUUGUCAUGUGGCACAUAGGACCGGGACCCGGGCGA [Exclusion - Tryptophan B Attempt #4 (HarryS)] = 40.3 nM

# apparent KD of MS2 coat protein of CCUAUGCAGUCGGCCGCCACUGAUAAAAUUAUUUUUACCUCAGAAACAUGAGGAUCACCCAUGUACAGGACCGGGACUGUAUAGG [Ex Tryptophan B 17] = 22.8 nM

# apparent KD of MS2 coat protein of UGCGUACAUGAGGAUCACCCAUGUACUGAAGGAGCGGGAGGCAUCUCAGGUAGGUCGCAGACAUGAGGAUCACCCAUGUAGUGGU [Exclusion Arginine A GF 18] = 38.3 nM

# apparent KD of MS2 coat protein of AAUAAUAGGUGAUCCUGACGAGUGGCAUAACGAGGACCGGUACGGCCGCCACUCGAACAUGAGGAUCACCCAUGUAGCCACUCGA [M'-T'-T-MS2-T'' - Design 5.b] = 685 nM

# apparent KD of MS2 coat protein of CCUAUGCAGUCGGCCGCCACUGUACAUGAGGAUCACCCAUGUUCUAAUAUAAUAAGAACUGAAAUCAGGACCGGGACUGUAUAGG [Ex Tryptophan B 2] = 19.7 nM

---

# System: MS2 coat protein
# assay.procedure: apparent KD of MS2 coat protein; designed switch direction (-1 OFF switch, 1 ON switch): 1; higher = weaker reporter binding
# stated.conditions: input ligand: none
Label True when apparent KD of MS2 coat protein is at or above 60 nM; otherwise label False.

apparent KD of MS2 coat protein >= 60 nM for UGAAUAGUUACAGGAUAUGAGCCGUAAAUUGGGUCAGAAGGGUGGGUGUUCUGCGCUGUGUGUUACAUGAGGAUCACCCAUGUU [SameState NG1 #31] (Eterna round: R96, puzzle: Same State NG 1) ?
True

apparent KD of MS2 coat protein >= 60 nM for AUUUUUAAUGCAGGAUAUGAUUAACAUGAGGAUCACCCAUGUGGUGUUGUGAGUAAGGAGAGUGAUCAGAAGGGCAUUUUUGUU [JMF's solution 85] (Eterna round: R96, puzzle: Same State NG 2) ?
True

apparent KD of MS2 coat protein >= 60 nM for GGUGCCAAUAAAGCCUACAUGAGGAUCACCCAUGUAUGUAGGCAGGAUAUCGUAUGCAAAGCAUACGAGAAGGGCCGAGGCACC [Mat - Same State NG 3 - JL Mod - D56] (Eterna round: R96, puzzle: Same State NG 3) ?
False

apparent KD of MS2 coat protein >= 60 nM for AUUAAUAAUCUAGGAUAUCACGUCGUUUAGACGUGAGAAGGAGAUCAUAACAUGAGGAUCACCCAUGUAUUACAUGAAGUUAAU [SSNG1/7-B3] (Eterna round: R96, puzzle: Same State NG 1) ?
False

apparent KD of MS2 coat protein >= 60 nM for UUUAUAGGCGCAGGAUAUGGUGAGGAUCACCCACUAGAAGGGUGCACAUGAGAAUCGGACAUGAGGAUCACCCAUGUCCGGCGC (Eterna round: R96, puzzle: Same State NG 1) ?
True

---

# System: MS2 coat protein
# assay.procedure: apparent KD of MS2 coat protein, switch OFF state (with FMN for OFF switches, without FMN for ON switches); designed switch direction (-1 OFF switch, 1 ON switch): -1; higher = weaker reporter binding
# stated.conditions: FMN input: 0 or 200 uM; Eterna round: R93 (includes R88 designs)
Label Criterion met when apparent KD of MS2 coat protein is at or above 60 nM; otherwise label Criterion not met.

apparent KD of MS2 coat protein >= 60 nM for AAGAGUAGAGGAUAUACGAAAAAAGAGUCGAAAGACUCGGGACAUGAGGAUCACCCAUGUAGAAGGCUACUCAA [Hyphema Seclusion Mod 62% 5] ?
Criterion met

apparent KD of MS2 coat protein >= 60 nM for GCAAAGUGAGGAUAUACGCGAACAAAAAAAAAAAAGAAAGCGUAGAAGGCACAUGAGGAUCACCCAUGUCCAGC [Alfred 64% 2] ?
Criterion not met

apparent KD of MS2 coat protein >= 60 nM for AAAAGGUGAGGAUAUAGGAAAAUAAAAUAAAAUAAAAUAAACUAGAAGGCACAUGAGGAUCACCCAUGUAAUAA [LROPPY Exclusion 4 - v03_deltaG=3.54 break up the As] ?
Criterion not met

apparent KD of MS2 coat protein >= 60 nM for AAAUUGUCAGGAUAUCGUAUAACUGGGAAAACCAGGAGAUACGAGAAGGGACAUGAGGAUCACCCAUGUAAAAC [May 94] ?
Criterion met

apparent KD of MS2 coat protein >= 60 nM for AAAAAACAUGAGGAUCACCCAUGUGAGGAUAUAGGAAAAAAAAAAAAAAAAAAAAAAACUAGAAGGCACAAAAA [Gess I got it^^] ?
Criterion not met

apparent KD of MS2 coat protein >= 60 nM for AGAAAACAUGAGGAUCACCCAUGUAAGGAUAUGCUGAAAAAACACUGGAAACAGUGCAGCAGAAGGUACAAAGA [Mat - Exclusion 1 - Eli mod - D99] ?
Criterion not met

apparent KD of MS2 coat protein >= 60 nM for AAAAAGUGAGGAUAUGAAAAUAAAAAAAACAAACAAAUAAAUCAGAAGGCACAUGAGGAUCACCCAUGUAAAAA [JR_Exc004_Sub1202] ?
Criterion not met

apparent KD of MS2 coat protein >= 60 nM for AACUGACAUGAGGAUCACCCAUGUCAGGAUAUGCUUCAUAAAAACAAACAAAAAUGAUGCAGAAGGGACAUGGA [Design 30 :P Sub-opt 6] ?
Criterion not met

apparent KD of MS2 coat protein >= 60 nM for AGUUGGCGAGGAUAUACAUGAGGAUCACCCAUGUGAGAGAAAUAAGUGAGAAAGAAAAGUAGAAGGCGCUCACA [JL Lego Mod 17] ?
Criterion not met

apparent KD of MS2 coat protein >= 60 nM for UAAAACUUAGGAUAUACAUGAGGAUCACCCAUGUCAAGACAAGGAAGGUCCUAAGCCGGUAGAAGGAAGAAAAU [Bexeora] ?
Criterion not met

apparent KD of MS2 coat protein >= 60 nM for GGAAAACAUGAGGAUCACCCAUGUGAGGAUAUCGAUGUCCAAAAAAGAGUGCGGGACUCGAGAAGGCACUUGGA [salish99-ex1-43] ?
Criterion not met

apparent KD of MS2 coat protein >= 60 nM for AACUCGUCAGGAUAUGCGCACAGAUAAUACGCUACACAAAUGCAGAAGGGACAUGAGGAUCACCCAUGUAAAUA [JR_Exc004_Sub504] ?
Criterion not met

apparent KD of MS2 coat protein >= 60 nM for UAAAGACAUGAGGAUCACCCAUGUGAGGAUAUCGGAGAUAACAGAACAUCAAGUUCAACGAGAAGGCACAGAAA [JR_Exc001_Sub401] ?
Criterion met

apparent KD of MS2 coat protein >= 60 nM for AGCUAGUGAGGAUAUGCGAACAUGUCAAAAGACGUGAAGGGACAUGAGGAUCACCCAUGUAGAAGGCACUAGCA [JL 74% mod 3] ?
Criterion not met

apparent KD of MS2 coat protein >= 60 nM for AGCUAGUCAGGAUAUACGAACAAGACAAAAGACGUGAAGGGACAUGAGGAUCACCCAUGUAGAAGGGACUAGCA [74%, Web mod - With 2 less U's] ?
Criterion met

apparent KD of MS2 coat protein >= 60 nM for AAAAAGUGAGGAUAUGCAGUGUCCUGUAGACGCGAGCACUUGUAGAAGGCACAUGAGGAUCACCCAUGUUUAAA [EX4 Malc#28] ?
Criterion not met

apparent KD of MS2 coat protein >= 60 nM for AAGAAUGGAGGAUAUACAUAAAAGAAAGAAAAGAAAAGAAAACAUGAGGAUCACCCAUGUAGAAGGCCAUAGAA [EteRNA is fun!] ?
Criterion not met

apparent KD of MS2 coat protein >= 60 nM for AGAUAGUCAGGAUAUACGAACAAGAAAAAAGACGAGAACGGACAUGAGGAUCACCCAUGUAGAAGGGACAAGAA [Diamond 12] ?
Criterion not met

apparent KD of MS2 coat protein >= 60 nM for AACUGACAUGAGGAUCACCCAUGUCAGGAUAUGACUUGACGAAAAAAAACACGUCAUGUCAGAAGGGACAUGAA [Design 88: Sub-opt YB] ?
Criterion not met

apparent KD of MS2 coat protein >= 60 nM for AUAAACAGAGGAUAUACACAAAAUAAAGAAAAUAAAGAAACACAUGAGGAUCACCCAUGUAGAAGGCUGGAAAA ?
Criterion not met

apparent KD of MS2 coat protein >= 60 nM for UAAAGACAUGAGGAUCACCCAUGUGAGGAUAUCGGAGAUAACAGAACAUCAAGUUCAGCGAGAAGGCACAGGAA [JR_Exc001_Sub403] ?
Criterion met

apparent KD of MS2 coat protein >= 60 nM for CUCAAGUGAGGAUAUCAGUAGUAAAAAAAUAAAAUUACUACUGAGAAGGCACAUGAGGAUCACCCAUGUUCCAA [EX4 342: Super Stable 42] ?
Criterion met
